- experimentalTarget: IdeR WT (Saccharopolyspora erythraea DSM 40517, UniProt A0ABF7PL34 1-231)
- assayInfo: EMSA; 30 uM Co2+; EMSA: 15 mM Tris-acetate pH 7.3, 4 mM K-acetate, 10% glycerol, 17 ng/ul poly(dI-dC), 30 nM DNA, 30 uM Co2+, IdeR 15 nM-2.25 uM dimer, 20 min room temperature; 4% native gel at 4 C
- experimentalParameters: protein: recombinant; tags: N-terminal His6 removed by TEV; Gly-His remains before Met1; chain copies: 4; label: 5' Cy5 on strand 1; blunt
pKd: −log10 of the molar value.

binder	pKd
Consensus_C1-T1 (dsDNA) DNA 1: CGTACTTAGATTAGACTAATCTAAGTACG DNA 2: CGTACTTAGATTAGTCTAATCTAAGTACG	~7.15
Consensus_A4A5-S4S5 (dsDNA) DNA 1: CGTACGCAGGCGAGGCTCGCCTGCGTACG DNA 2: CGTACGCAGGCGAGCCTCGCCTGCGTACG	~6.89
C10S2 (dsDNA) DNA 1: GATGCTTAGGTTAGCCTACCCGACGCTGA DNA 2: TCAGCGTCGGGTAGGCTAACCTAAGCATC	~7.03
